# key: entry, value: pIC50
Target: PHF8 (KDM7) (Homo sapiens)
Construct: KDM7 (PHF8); BRIC; 1-1322; Bac
Assay: Histone lysine demethylase AlphaLISA assay, PHF8
Assay type: biochemical
Details: AlphaLISA, in vitro; read-out: HDME Inhibition PHF8
Please note pIC50 is a logarithmic value: minus log10 of concentration in mol/L. Answer with that number alone.

Use the examples below as a reference point.
# compound Cc1cc(C(=O)O)cc(CNCc2ncc(C(C)O)n2Cc2ccc(F)cc2)n1 (centres unmarked) ; its pIC50 = 5.85

Recorded result, `CCn1cnc2cc(Cn3cnnc3CNCc3cc(C(=O)O)cc(C)n3)ccc21` , pIC50: 5.18

Short answer for `C/C=C/c1cc(C(=O)O)cc(CNCc2nccn2Cc2ccc(F)cc2)n1` : pIC50 was 5.42

What the record says about `Cc1cc(C(=O)O)cc(CNCc2ncc(C3CCC3)n2Cc2ccc(F)cc2)n1` : pIC50 is 6.33

Short answer for `Cc1nnc(CNCc2cc(C(=O)O)cc(CO)n2)n1CCCC(C)C` : pIC50 was 5.76

Continuing:
The compound listed as `Cc1nc(CNCc2cc(C(=O)O)cc(CO)n2)n(Cc2ccc(F)cc2)c1C` has a reported pIC50 of 5.31

The recorded pIC50 for `CCCCCc1cccnc1CCNCc1cc(C(=O)O)cc(C)n1` is 5.46

For reference, reported pIC50 for `CCOc1ccc(CC(C)C)c(CNCc2cc(C(=O)O)cc(CO)n2)n1` stands at 5.88

====

Entries and their IC50 values follow.
Target: KDM2B (FBXL10) (Homo sapiens)
Construct: KDM2B; BPS,; 1-650; Bac; purchased BPS Bioscience, US; host or cells: baculovirus system
Sequence (Q8NHM5 1-650): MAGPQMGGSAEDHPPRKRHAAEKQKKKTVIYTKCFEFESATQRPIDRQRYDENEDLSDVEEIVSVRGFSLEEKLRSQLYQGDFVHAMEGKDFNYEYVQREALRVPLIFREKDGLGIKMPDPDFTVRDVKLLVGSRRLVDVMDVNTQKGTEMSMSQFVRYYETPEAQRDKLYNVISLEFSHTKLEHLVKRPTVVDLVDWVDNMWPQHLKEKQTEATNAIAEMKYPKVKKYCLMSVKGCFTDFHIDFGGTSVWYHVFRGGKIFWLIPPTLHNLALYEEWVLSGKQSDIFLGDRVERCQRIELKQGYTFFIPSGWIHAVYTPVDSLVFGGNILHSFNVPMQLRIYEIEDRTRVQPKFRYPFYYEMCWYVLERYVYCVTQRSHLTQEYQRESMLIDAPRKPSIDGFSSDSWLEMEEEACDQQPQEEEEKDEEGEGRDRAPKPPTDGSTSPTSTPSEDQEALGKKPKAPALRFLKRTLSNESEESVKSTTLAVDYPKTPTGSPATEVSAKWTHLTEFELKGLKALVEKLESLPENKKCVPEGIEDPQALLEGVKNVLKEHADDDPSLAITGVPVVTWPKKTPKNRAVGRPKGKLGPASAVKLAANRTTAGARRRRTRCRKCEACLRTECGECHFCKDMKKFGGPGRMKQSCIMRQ
Experiment: Histone lysine demethylase AlphaLISA assay, KDM2B
Type: biochemical
Details: AlphaLISA, in vitro; read-out: HDME Inhibition KDM2B

The examples below pair each entry with its known result.
Reported IC50 for NCc1cc(C(=O)O)cc(CN)n1 [Compound 110] was > 10 µM

Form: molecule = CCCCCc1cccnc1CCNCc1cc(C(=O)O)cc(C)n1 [Compound 16] ; IC50 = > 6.8 µM

Recorded result, Cc1cc(C(=O)O)cc(CNCc2nccn2Cc2cccc(CN)c2)n1 [Compound 48] , IC50: > 10 µM

Now examine the next entry.
get_value(item= COc1ccc(CCn2ccnc2CNCc2cc(C(=O)O)cc(C)n2)cc1 [Compound 17] , readout=IC50) returns > 10 µM
